Source: the nanobody polyreactivity screen of Harvey et al. (2022)

- protocol.summary: yeast display, Sf9 membrane polyspecificity reagent, FACS + sequencing; frameworks hold sequencing errors
value.type: polyreactivity (PSR sort gate)

Consider the worked cases shown below.
For QVQLVESGGGLVQAGGSLRLSCAASGFILGSNAMGWYRQAPGKERELVAAISRSGGSTYYADSVKGRFTISRDNAKNTVYLQMNSLKPEDTAVYYCNRVASVRARDYDYWGQGTQVTVSS the sequence record lists polyreactivity (PSR sort gate) as high polyreactivity

For QVQLVESGGGLVQAGGSLRLSCAASGFTFRGYAMGWYRQAPGKERELVAAIRRGVGSTYYADSVKGRFTISRDNAKNTVYLQMTSLKPEDTAVYYCNKDNAVDRLPWFQVTYDYWGQGTQVTVSS the sequence record lists polyreactivity (PSR sort gate) as low polyreactivity

For QVQLVESGGCLVQAGGSLRLTCAASGSTFDRKARGWYRQAPGKERELVAAITKSGGSTYYADSVKGRFTISRDNAKNTVYLQMNSLKPEDTAVYYCKEFYRAVYPYYYWGQGTQVTVSS the sequence record lists polyreactivity (PSR sort gate) as low polyreactivity

For QVQLVESGGGLVQAGGSLRLSCAASGYTSRSNAMGWYRQAPGKERELVAAIRGGGNTKYADSVKGRFTISRDTAKNTVYLQMNSLKPEDTAVYYCAVVTGSFRTRYTYYYWGLGTQVTVSS the sequence record lists polyreactivity (PSR sort gate) as high polyreactivity

New cases:
For QVQLVESGGGLVQAGGSLRLSCAASGRIFKWYAMGWYRQAPGKERELVAAITSGGGSTYYADSVKGRFTISRDNAKNTVYLQMNSLKPEDTAVYYCAVKGYRRWGYDYWGQGTQVTVSS the sequence record lists polyreactivity (PSR sort gate) as high polyreactivity

For QVQLVESGGGLVQAGGSLRLSCADSASTLVVNGMGWYRQAPGKERELVASISSDGSTNYADSVKGRFTISRDNAKNTVYLQMNSLKPEDTAFYYCAADEGNGQASLSSNLYDYWGQGTQVTVSS the sequence record lists polyreactivity (PSR sort gate) as low polyreactivity

For QVQLVESGGGLVQARGSLRLSCAASGNIFYRYAMGWYRQATGKERELVAAISFSGGGTYYADSVKGRFTISRDNAKNTVYLQMNSLKPEDTAVYYCAAYRRGCYDYWGQGTQVTVSS the sequence record lists polyreactivity (PSR sort gate) as high polyreactivity

For QVQLVESGGGLVQAGGSLRLSCAASGRIFWTYAMGWYRPAPGKERELVAAITWRGGSTSYADSVKGRFTISRDNAKNTVYLQMNSLKPEDTAVYYCNARYSGYSPWGNDYWGQGTQVTVSS the sequence record lists polyreactivity (PSR sort gate) as high polyreactivity

* * *

- protocol.summary: yeast display, Sf9 membrane polyspecificity reagent, FACS + sequencing; frameworks hold sequencing errors
value.type: polyreactivity (PSR sort gate)

For QVQLVESGGGLVQAGGSLRLSCAASGRTFYQYDMGWYRQAPGKERELVAAIDWSGGSTYYADSVKGRFTISRDNAKNTVYLQMNSLKPEDTAVYYCNKDSHISTAYDYWGQGTQVTVSS the sequence record lists polyreactivity (PSR sort gate) as low polyreactivity

For QVQLVESGGGLVQAGGSLRLSCAASGSIFDVYTMGWYRQAPGKERELVAAISQSTGSTYYAASVKGRFTISRDNAKNTVYLQMNSLIPEDTAVYYCNAKFRFVTYKTPYVFWGQVTQVTVSS the sequence record lists polyreactivity (PSR sort gate) as low polyreactivity

For QVQLVESGGGLVQAGGSLRLSCDASGRIFRKNAMGWYRQAPGKERELVAAISGGGGSTYYADSVKGRFTISRDNAKNTVYLQMNSLKPEDTADYYCNAPILPGYWGQGTQVTVSS the sequence record lists polyreactivity (PSR sort gate) as high polyreactivity

For QVQLVESCGGLVQAGGSLRLSCADYGRTFGKYAMGWYRQSPGKERELVAAITYRGGTTYYEDSVKGRFTISRDNAKNTLYLQMNSLKPEDTAVYYCATAPGRRYDWGQGTQVTVSS the sequence record lists polyreactivity (PSR sort gate) as high polyreactivity

New cases:
For QVQLVESGGGLVQAGGSLRLSCAASGRIFARYAMGWYRQAPGKERELVAAITVSGDNTYYADSVKGRFTISRDNAKNTVYLQMNSLKPEDTAVYYCNAYFLVHYRRLRPYDYWGQGTQVTVSS the sequence record lists polyreactivity (PSR sort gate) as low polyreactivity

For QVQLVESGGGLVQAGGSLRLSCAASGLIFRRYAMGWYRQAPGKERELVAAINLSGGSTYYADSVKGRFTISRDNAKNTVYLQMNSLKPEDTAVYYCNAVSVYSLPRVGGRYDYWGQGTQVTVSS the sequence record lists polyreactivity (PSR sort gate) as high polyreactivity

For QVQLVESGGGLVQAGGSLRLSCAASGSIFNLYAMGWYRQAPGKERELVATITWSGGSTYYADSVKGRFTISRDNAKNTVYLQMNSLKPEDTAVYYCAATALEWYPAVYNQYYYWGQGTQVTVSS the sequence record lists polyreactivity (PSR sort gate) as low polyreactivity

For QVQLVESGGGLVQAGGSLRLSCAASGIIFDVYAMGWYRQAPGKEREFVAAITTGGSTNYADSVKGRFTISRDNAKNSVYLQMNSLTPEDTAVYYCNADWDVGYGYWGQGTQVTVSS the sequence record lists polyreactivity (PSR sort gate) as low polyreactivity

For QVQLVESGGGLVQAGGSLRLSCAASGSIFSWYAMGWYRQAPGKERELVATITWRGGSTYYADSVKGRFTISRDNAKNTVYLQMNSLKPEDTAVYYCAARVPDPYTSYRYPPYYYWGQGTQVTVSS the sequence record lists polyreactivity (PSR sort gate) as low polyreactivity

For HVQLGESGGGLVQAGGSLRLSCAASGRISVFYTMGGYRQAPGKEREMVAVIRTSGGRTNYADSVKGRFTISRDNAKNTVYLQMNSLKPEDTAVYYCAARVVRYGYKYYYWGQGTQVTVSS the sequence record lists polyreactivity (PSR sort gate) as low polyreactivity

For QLQLVESGGGLVQAGGSLRLSSAASGSIFIYYAMGWYRQAAGKERELVAAISYSDGDTYYADSVKGRFTISRDNAKNTVYLQMNSLKPEDTAVYYCAAEVPQYYDVGWEDYWGQGTQVTVSS the sequence record lists polyreactivity (PSR sort gate) as high polyreactivity

* * *

- protocol.summary: yeast display, Sf9 membrane polyspecificity reagent, FACS + sequencing; frameworks hold sequencing errors
value.type: polyreactivity (PSR sort gate)

Consider the worked cases shown below.
For QVQRVESGGGLFQAGRSLRLSCAASGSTIRRYAMGWYRQAPGKERELVAAMSRGGNTNYADSVKGRFTISRDNATNTVYLQMNCLKPEDTAVYYCAAKLYGGWYRDFAACGMDYWGQGTQVTVCS the sequence record lists polyreactivity (PSR sort gate) as high polyreactivity

For QVQLVESGGGLVQAGGSLRLSCAASGYTLQTYAMGWYRQAPGKERELVAAISYRGGRTYYADSVKGRFTISRDNAKNTVYLQMNSLKPEDTAVYYCATRVRYKDYPYSIRYYWGQGTQVTVSS the sequence record lists polyreactivity (PSR sort gate) as high polyreactivity

For QVQLVESGGGLVQAGGSLRLSCAASGSIFAYNAMGWYRQAPGKERELVAAISVSDGITYYADSVKGRFTISRDNAKNTVYLQMNSLKPEDTAVYYCAARTRGPYRAYDYWGQGTQVTVSS the sequence record lists polyreactivity (PSR sort gate) as low polyreactivity

For QVQLVESGGGLVQAGGSLRLICAASGSISTPYTMGWYRQAPGKERELVAAISWIGDTTSYADSVKGRFTISRDNAKNTVYLQMNSLKPEDTAVYYCNAEHRGYDYWGQGTQVTVSS the sequence record lists polyreactivity (PSR sort gate) as low polyreactivity

New cases:
For QVQLVESGGGLVQAAGSLRLSCAASGTTFNRFFMGWYREAPGTERELVAANGGRTYYADSVKGRFTISRDNAKKSVYFQRNSLKPEDTAVYYCNARSYKHPYYRFDYWGQGTEVTVSS the sequence record lists polyreactivity (PSR sort gate) as high polyreactivity

* * *

- protocol.summary: yeast display, Sf9 membrane polyspecificity reagent, FACS + sequencing; frameworks hold sequencing errors
value.type: polyreactivity (PSR sort gate)

Consider the worked cases shown below.
For QVQLVESGGGLVQAGGSLRLSCAASGNTFRYYAMGWYRQAPGKERELVAAISGDGGSTYYADSVKGRFTISRDNAKNTVYLQMNSLKPEDTAVYYCNKAGRRRYRESDYWGQGTQVTVSS the sequence record lists polyreactivity (PSR sort gate) as high polyreactivity

For QVQLVESGGGLVQAGGSLRLSCAASGFIFPVYAMGWYRQAPGKERELVAAITDSGDSTYYADSVKGRFTISRDNAKNTVYLQMNSLKPEDTAVYYCAAQVQYPRWYRSGKYDYWGQGTQVTVSS the sequence record lists polyreactivity (PSR sort gate) as low polyreactivity

For QVQLVESGGGLVQAGGPLRLSCAASGIIFGFYAMGWYRQPPGKERELVADITSSGGSTYYADSVKGRFTISRDNAKNTVYLQINSLKPEDTAVYYCAADGVPGGPPVEGMDYWGQGTQVTVSS the sequence record lists polyreactivity (PSR sort gate) as low polyreactivity

For QVQLVESGGGLVQAGGSLRLSCAASGLIFYNYAMGWYRQAPGKERELVAAITSGGSTYYADSVKGGFTISRDNAKNTVYLQMNSLKPEDTAVYYWAADLTYTVPFDYWGQGTQVTVSS the sequence record lists polyreactivity (PSR sort gate) as high polyreactivity

Next item in the queue.
For QVQLVESGGGLVQAGGSLRLSCAASGFIFIFYAMGWYRQAPGKERELVAGISWSSSSTYYADSVKGRFTISRDNAKNTVYLLMNSLKPEDTAVYYFNAKHLPRHRDYWGQGTQVTVSS the sequence record lists polyreactivity (PSR sort gate) as low polyreactivity
